# System: GPRALS1
# method summary: iCa^2+ release (Fluo-4 NW) in stable CHO cells expressing GPRALS1
# Assay type: cell-based, Anopheles coluzzii
# condition: 1 nM to 1 μM (BLAST-2 0.5 μM to 0.005 μM)
Ends that are not written are not given here.

| substance | system | receptor activation, iCa^2+ signalling |
| --- | --- | --- |
| YNLNSFGLRY-NH2 [KISS 1–10, vertebrate KISS peptide, sea bass KISS 1–10 ([…]-NH2)] | GPRALS1 | failed to activate |
| rat 1–29 GAL: 1–29 rat galanin (Sigma-Aldrich, Spain) (GWTLNSAGYLLGPHAIDNHRSFSDKHGLT; ends and bridges not checked; UniProt P10683 33-61, looked up) | GPRALS1 | failed to activate |
| FNFNPFGLRF-NH2 [KISS 2–10, vertebrate KISS peptide, sea bass KISS 2–10 ([…]-NH2)] | GPRALS1 | failed to activate |

Source: paper PMC4489612
